Entries and their measured Response follow.
Target: T1, Recombinant human CD4 (R&D Systems, Cat. 10327-CD) (human, UniProt P01730 26-390, limits assumed)
T1 construct: Soluble analyte in the Octet assay
Test: BLI Octet, mAb on anti-mouse Fc sensor, CD4 100/50/25 nM, 1:1 global fit;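 also: antibodies loaded at 10 µg/mL, an unrelated mouse-derived antibody served as internal reference control, association and dissociation phases fitted after Savitzky-Golay smoothing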
Lab note: write the figure by itself, no unit.

A selection of reference data follows.
INSERT INTO measurements (binder, recorded_result) VALUES
  ('75110_01J09A (antibody, V domains shown, Tested as antibody purified from AlivaMab Mouse hybridoma supernatant (captured by anti-mouse IgG Fc)) VH: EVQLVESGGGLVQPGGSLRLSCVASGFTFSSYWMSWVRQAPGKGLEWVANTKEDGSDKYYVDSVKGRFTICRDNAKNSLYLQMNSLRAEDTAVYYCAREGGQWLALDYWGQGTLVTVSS VL: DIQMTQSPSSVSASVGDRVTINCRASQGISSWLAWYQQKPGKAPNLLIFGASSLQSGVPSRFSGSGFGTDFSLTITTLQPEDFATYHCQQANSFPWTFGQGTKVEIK', 0.12),
  ('75110_04B08A (antibody, V domains shown, Tested as antibody purified from AlivaMab Mouse hybridoma supernatant (captured by anti-mouse IgG Fc)) VH: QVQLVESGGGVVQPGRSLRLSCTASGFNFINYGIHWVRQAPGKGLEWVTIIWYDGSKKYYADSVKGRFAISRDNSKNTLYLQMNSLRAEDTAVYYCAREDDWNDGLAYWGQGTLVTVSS VL: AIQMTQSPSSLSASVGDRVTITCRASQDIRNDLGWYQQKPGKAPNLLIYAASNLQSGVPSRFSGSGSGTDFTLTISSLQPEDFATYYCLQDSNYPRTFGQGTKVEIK', 0.25),
  ('75110_03L12A (antibody, V domains shown, Tested as antibody purified from AlivaMab Mouse hybridoma supernatant (captured by anti-mouse IgG Fc)) VH: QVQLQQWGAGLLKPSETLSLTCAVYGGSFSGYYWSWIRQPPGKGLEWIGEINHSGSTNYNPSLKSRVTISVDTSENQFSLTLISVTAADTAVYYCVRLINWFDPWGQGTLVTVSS VL: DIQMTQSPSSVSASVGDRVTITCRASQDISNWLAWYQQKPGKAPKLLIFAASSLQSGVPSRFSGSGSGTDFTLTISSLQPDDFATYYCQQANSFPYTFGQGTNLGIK', 0.22);

Next item in the queue.
Data point: 75110_04H17A (antibody, V domains shown, Tested as antibody purified from AlivaMab Mouse hybridoma supernatant (captured by anti-mouse IgG Fc)) VH: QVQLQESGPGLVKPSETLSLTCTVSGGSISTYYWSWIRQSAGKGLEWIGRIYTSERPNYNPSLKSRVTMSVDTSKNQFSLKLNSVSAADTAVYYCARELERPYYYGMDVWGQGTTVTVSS VL: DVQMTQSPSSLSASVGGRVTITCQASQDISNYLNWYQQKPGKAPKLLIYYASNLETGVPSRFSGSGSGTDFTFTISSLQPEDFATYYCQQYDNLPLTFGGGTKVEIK ; Response = 0.15

Where do these numbers come from? They come from patent US20220112288A1.
